Tested on: NCI-H441 (Lung Adenocarcinoma)
assay.overview: combination Emax (second highest fraction inhibited in the dose matrix, 72 h); higher = more inhibition; extreme values may be limits of the assay
combination Emax values by entry

[
  {
    "compound": "C=CCn1c(=O)c2cnc(Nc3ccc(N4CCN(C)CC4)cc3)nc2n1-c1cccc(C(C)(C)O)n1 [AZD1775] + CCc1c2c(nc3ccc(O)cc13)-c1cc3c(c(=O)n1C2)COC(=O)[C@]3(O)CC [SN-38] (first compound max 1 µM, partner max 0.3 µM)",
    "combination Emax": 0.685
  },
  {
    "compound": "COc1nnc2ccc(N3CCC(c4ccc(OCCN5CCN(C)C(=O)[C@H]5C)cc4)CC3)nn12 [AZD5153] + CC1(C)CCC(CN2CCN(c3ccc(C(=O)NS(=O)(=O)c4ccc(NCC5CCOCC5)c([N+](=O)[O-])c4)c(Oc4cnc5[nH]ccc5c4)c3)CC2)=C(c2ccc(Cl)cc2)C1 [Venetoclax] (first compound max 1 µM, 7x7, partner max 1 µM)",
    "combination Emax": 0.381
  },
  {
    "compound": "N#Cc1cnc(Nc2cc(NC[C@H]3CNCCO3)c(C(F)(F)F)cn2)cn1 [SRA737] + CCc1c2c(nc3ccc(O)cc13)-c1cc3c(c(=O)n1C2)COC(=O)[C@]3(O)CC [SN-38] (first compound max 10 µM, 7x7, partner max 0.3 µM)",
    "combination Emax": 0.663
  },
  {
    "compound": "CCc1c2c(nc3ccc(O)cc13)-c1cc3c(c(=O)n1C2)COC(=O)[C@]3(O)CC [SN-38] + CN(C)CCCOc1ccc(-c2ccc3ncc4c(c3c2)n(C2CCOCC2)c(=O)n4C)cn1 [AZD0156] (first compound max 0.3 µM, 7x7, partner max 1 µM)",
    "combination Emax": 0.614
  }
]

Hey, just so you know, these numbers are from the supplement of paper PMC11061612.
